Value source: patent US20150098989A1

- subject of test: SNARE complex (VAMP, syntaxin, SNAP-25 bound to GST) (UniProt P60880)
- Sequence (P60880 whole entry, one chain of several): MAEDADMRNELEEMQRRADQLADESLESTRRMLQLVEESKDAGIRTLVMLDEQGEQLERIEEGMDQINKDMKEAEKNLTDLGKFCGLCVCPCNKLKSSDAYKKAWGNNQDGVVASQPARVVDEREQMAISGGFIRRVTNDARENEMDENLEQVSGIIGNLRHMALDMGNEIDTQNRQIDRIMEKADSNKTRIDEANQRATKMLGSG
- procedure text: ELISA of SNARE complex formation (SNAP-25-GST, syntaxin, immobilized VAMP); compound at 2.5 mM
readout type: % inhibition formation SNARE complex (%)

P. Ac-NHFLNWM-NH2 [Ac-SEQ ID NO: 15-NH2]
Q. Ac-ENLKRWM-NH2 [Ac-SEQ ID NO: 117-NH2]
R. Ac-QHLKNWM-NH2 [Ac-SEQ ID NO: 27-NH2]
S. Ac-RHFLQWM-NH2 [Ac-SEQ ID NO: 13-NH2]
Problem: Rank the listed binders, smallest % inhibition formation SNARE complex first and largest last. Would you mind listing the labels in the order asked for?
Solution: R, S, P, Q
(R: 14%, S: 20%, P: 42%, Q: 65%)

I. Ac-EHLKKWM-NH2 [Ac-SEQ ID NO: 8-NH2]
II. Ac-EHLKQWM-NH2 [Ac-SEQ ID NO: 1-NH2]
III. Ac-NHLKHWM-NH2 [Ac-SEQ ID NO: 32-NH2]
Problem: Your job: order these 3 records by % inhibition formation SNARE complex, ascending. Would you mind listing the labels in the order asked for?
Solution: III, I, II
